Test system: LNCaP tumor bearing mice
test.details: SPECT/CT scanning, exposure of 177Lu labeled compounds in tumor and tissues
Format: in vivo
cond: labeled with 177Lu; about 7.4 MBq (200 μCi) tail vein; scans 1-72 h
Exposure in Spleen listing for selected compounds.
Field: numeric (h*ID %/g). Do not append units.

Data point: O=C(O)CCCCCCCCCCCCC(=O)N[C@@H](CCCCNC(=O)CN1CCN(CC(=O)O)CCN(CC(=O)O)CCN(CC(=O)O)CC1)C(=O)NCC1CCC(C(=O)N[C@@H](Cc2ccc3ccccc3c2)C(=O)NCCCC[C@H](NC(=O)N[C@@H](CCC(=O)O)C(=O)O)C(=O)O)CC1 (some centres unmarked) [PSMA-G] ; Exposure in Spleen = 83.39

Data point: COc1ccc(CCCC(=O)NC(CCC(N)=O)C(=O)N[C@@H](CCCCNC(=O)CN2CCN(CC(=O)O)CCN(CC(=O)O)CCN(CC(=O)O)CC2)C(=O)NCC2CCC(C(=O)N[C@@H](Cc3ccc4ccccc4c3)C(=O)NCCCC[C@H](NC(=O)N[C@@H](CCC(=O)O)C(=O)O)C(=O)O)CC2)cc1 (some centres unmarked) [PSMA-E] ; Exposure in Spleen = 46.74

Data point: COc1ccc(CCCC(=O)NC(CCCCN)C(=O)N[C@@H](CCCCNC(=O)CN2CCN(CC(=O)O)CCN(CC(=O)O)CCN(CC(=O)O)CC2)C(=O)NCC2CCC(C(=O)N[C@@H](Cc3ccc4ccccc4c3)C(=O)NCCCC[C@H](NC(=O)N[C@@H](CCC(=O)O)C(=O)O)C(=O)O)CC2)cc1 (some centres unmarked) [PSMA-C] ; Exposure in Spleen = 29.2
